Every entry's value here was drawn from patent US20080003305A1.

Tested on: MOs in starch sizing mixture
TEST SUMMARY: Efficacy of oxidizing and non-oxidizing biocides in a starch sizing mixture (paper industry)
Assay type: cell-based
MEASUREMENT PARAMETERS: 30 ppm active ingredient; 60° C.; 4 hours
Listed here: items and their measured Surviving MOs after time (hours): 4.
MEASURE NAME: Surviving MOs after time (hours): 4

>  <COMPOUND>
[Na+].[O-]Cl [NaOCl, sodium hypochlorite]

>  <RESULT>
4 × 10^3 cfu/ml

$$$$
>  <COMPOUND>
N#CC(Br)(Br)C(N)=O

>  <RESULT>
3 × 10^4 cfu/ml

$$$$
>  <COMPOUND>
Cn1sccc1=O

>  <RESULT>
2 × 10^4 cfu/ml

$$$$
>  <COMPOUND>
N#CSCSC#N

>  <RESULT>
9 × 10^4 cfu/ml

$$$$
